test system: MCF7; assay: Cytotoxicity against human MCF7 cells after 48 hrs by SRB assay; assay type: functional, cell-based; settings: MCF7, 48 h
Output criterion met for records whose IC50 is lower than 20 µM, criterion not met for records at or above 20 µM.

[[record]]
structure = "COc1ccccc1/C=C/C=C/C(=O)/C=C/C1=C(C)CCCC1(C)C"
category_label = "criterion not met"

[[record]]
structure = "CC1=C(/C=C/C(=O)/C=C/c2cccc3ccccc23)C(C)(C)CCC1"
category_label = "criterion not met"

[[record]]
structure = "CC1=C(/C=C/C(=O)/C=C/c2ccc(C#N)cc2)C(C)(C)CCC1"
category_label = "criterion met"

[[record]]
structure = "CC1=C(/C=C/C(=O)/C=C/c2cccnc2)C(C)(C)CCC1"
category_label = "criterion met"

[[record]]
structure = "CC1=C(/C=C/C(=O)/C=C/c2ccccc2Cl)C(C)(C)CCC1"
category_label = "criterion not met"

[[record]]
structure = "CC1=C(/C=C/C(=O)/C=C/c2ccc(Cl)c(Cl)c2)C(C)(C)CCC1"
category_label = "criterion not met"

[[record]]
structure = "CC1=C(/C=C/C(=O)/C=C/c2ccccc2C)C(C)(C)CCC1"
category_label = "criterion not met"

[[record]]
structure = "CC1=C(/C=C/C(=O)/C=C/C=C/c2ccccc2)C(C)(C)CCC1"
category_label = "criterion not met"

[[record]]
structure = "CC1=C(/C=C/C(=O)/C=C/c2ccc(F)cc2)C(C)(C)CCC1"
category_label = "criterion met"

[[record]]
structure = "CC1=C(/C=C/C(=O)/C=C/c2ccccc2[N+](=O)[O-])C(C)(C)CCC1"
category_label = "criterion met"

[[record]]
structure = "COc1cc(/C=C/C(=O)/C=C/C2=C(C)CCCC2(C)C)cc(OC)c1OC"
category_label = "criterion met"

[[record]]
structure = "CC1=C(/C=C/C(=O)/C=C/c2ccc(Cl)cc2)C(C)(C)CCC1"
category_label = "criterion met"

[[record]]
structure = "CC1=C(/C=C/C(=O)/C=C/c2ccc(C)cc2)C(C)(C)CCC1"
category_label = "criterion not met"

[[record]]
structure = "CC1=C(/C=C/C(=O)/C=C/c2ccccc2Br)C(C)(C)CCC1"
category_label = "criterion not met"

[[record]]
structure = "CC1=C(/C=C/C(=O)/C=C/c2ccoc2)C(C)(C)CCC1"
category_label = "criterion not met"

[[record]]
structure = "COc1ccc(/C=C/C(=O)/C=C/C2=C(C)CCCC2(C)C)cc1OC"
category_label = "criterion not met"

[[record]]
structure = "COc1ccccc1/C=C/C(=O)/C=C/C1=C(C)CCCC1(C)C"
category_label = "criterion met"

[[record]]
structure = "CC1=C(/C=C/C(=O)/C=C/c2ccccc2F)C(C)(C)CCC1"
category_label = "criterion met"

[[record]]
structure = "CC1=C(/C=C/C(=O)/C=C/c2ccc([N+](=O)[O-])cc2)C(C)(C)CCC1"
category_label = "criterion met"

[[record]]
structure = "CC1=C(/C=C/C(=O)/C=C/c2ccccc2)C(C)(C)CCC1"
category_label = "criterion met"

[[record]]
structure = "CC(=O)O[C@H]1C(=O)[C@@]2(C)[C@H]([C@H](OC(=O)c3ccccc3)[C@]3(O)C[C@H](OC(=O)[C@H](O)[C@@H](NC(=O)c4ccccc4)c4ccccc4)C(C)=C1C3(C)C)[C@]1(OC(C)=O)CO[C@@H]1C[C@@H]2O"
category_label = "criterion met"

